# TARGET DESC: human IL-17AA (Homo sapiens)
# MEASUREMENT NOTES: IL-8 release assay in human epithelial keratinocytes adult (HEKa)
# CONDITIONS USED: HEKa cells, 3 ng/mL HEK-human IL-17AA + 10 ng/mL human TNFalpha; read-out: Rel EC50 IL-8 release assay
MEASURED PARAMETER: EC50

- MOLECULE: "Cc1n[nH]c(C)c1-c1ccc(NC(=O)[C@@H](NC(=O)c2ccnn2CCS(C)(=O)=O)C(C2CC2)C2CC2)cc1 [Example 158]"
  MEASURED PARAMETER: "EC50"
  RESULT: "< 0.1 µM"

Summary for this molecule, Cc1n[nH]c(C)c1-c1ccc(NC(=O)[C@@H](NC(=O)c2conc2C(C)C)C2CCCCC2)cc1 [Example 277] : EC50 is < 0.1 µM

Summary for this molecule, Cc1n[nH]c(C)c1-c1ccc(NC(=O)[C@@H](NC(=O)O[C@@H](C)CC[C@H](C)O)C(C2CC2)C2CC2)cc1 [Example 481] : EC50 is > 1 µM

Summary for this molecule, CCn1nccc1C(=O)N[C@H](C(=O)Nc1ccc(-c2c(C)n[nH]c2C)cc1)[C@H]1CC[C@H](C)CC1 [Example 126] : EC50 is < 0.1 µM

Summary for this molecule, Cc1n[nH]c(C)c1-c1ccc(NC(=O)[C@@H](NC(=O)c2csc3cnccc23)C2CCCCC2)cc1 [Example 286] : EC50 is 0.1 to 1 µM

Summary for this molecule, Cc1n[nH]c(C)c1-c1ccc(NC(=O)[C@@H](NC(=O)c2ccnn2C(C)CO)C(C)C(C)(C)C)cc1 (single isomer, unassigned) [Example 176] : EC50 is 0.1 to 1 µM

Summary for this molecule, Cc1n[nH]c(C)c1-c1ccc(NC(=O)[C@@H](NC(=O)c2ccnn2CCO)C(C2CCC2)C2CCC2)cc1 [Example 122] : EC50 is < 0.1 µM

* * *

Entries and their measured EC50 follow.
# TARGET DESC: human IL-17AA (Homo sapiens, UniProt Q16552)
# Construct: host or cells: HEK (human embryonic kidney) cells
# Sequence (Q16552 24-155): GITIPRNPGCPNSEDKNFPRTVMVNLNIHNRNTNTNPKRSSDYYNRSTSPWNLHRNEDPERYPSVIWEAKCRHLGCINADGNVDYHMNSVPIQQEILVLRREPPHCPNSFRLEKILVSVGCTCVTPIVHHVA
# MEASUREMENT NOTES: IL-8 release assay in human epithelial keratinocytes adult (HEKa)
# Type: cell-based
# CONDITIONS USED: HEKa cells, 3 ng/mL HEK-human IL-17AA + 10 ng/mL human TNFalpha; read-out: Rel EC50 IL-8 release assay
# Method: Example 138: IL-8 Release Assay in Human Epithelial Keratinocytes Adult (HEKa) Keratinocytes were seeded at 3500 cells/well in 384-well ViewPlates (Perkin Elmer) in Epilife medium (Thermo Fisher) containing human keratinocyte growth supplement (HKGS) without hydrocortisone and incubated in a humid incubator at 37° C. 5% CO2, overnight. […] IL-8 released from the cells was measured by the use of a commercial homogenous time-resolved fluorescence (HTRF) assay (CisBio). […]

Solved cases below.
- COMPOUND: "Cc1ncn(C)c1-c1ccc(NC(=O)C(NC(=O)OC(C)(C)C)C2CCC(F)(F)CC2)cc1 (single isomer, unassigned) [Example 85]"
  TARGET DESC: "human IL-17AA (Homo sapiens, UniProt Q16552)"
  EC50: "> 1000 nM"
- COMPOUND: "CC(C)n1nccc1C(=O)N[C@H](C(=O)Nc1ccc(-c2nncn2C)cc1)C1CCCCC1"
  TARGET DESC: "human IL-17AA (Homo sapiens, UniProt Q16552)"
  EC50: "100 to 1000 nM"
- COMPOUND: "Cc1n[nH]c(C)c1-c1ccc(NC(=O)[C@@H](NC(=O)c2cnnn2C(C)C)C(C2CCC2)C2CCC2)cc1"
  TARGET DESC: "human IL-17AA (Homo sapiens, UniProt Q16552)"
  EC50: "< 100 nM"
- COMPOUND: "Cc1ncn(C)c1-c1ccc(NC(=O)C(NC(=O)OC(C)(C)C)C2CCC(F)(F)CC2)cc1 (single isomer, unassigned) [Example 86]"
  TARGET DESC: "human IL-17AA (Homo sapiens, UniProt Q16552)"
  EC50: "> 1000 nM"

Summary for this compound, CCc1n[nH]c(CC)c1-c1ccc(NC(=O)[C@@H](NC(=O)c2ccnn2C)C(C2CC2)C2CC2)cc1 : EC50 is < 100 nM

Summary for this compound, Cc1n[nH]c(C)c1-c1ccc(NC(=O)[C@@H](NC(=O)c2ccnn2C(C)CO)[C@@H]2CC(C)(C)CCC2(F)F)cc1 (single isomer, unassigned) [Example 210] : EC50 is < 100 nM
